The reported numbers originate from PubChem BioAssay (NCATS).

# PROTOCOL NOTES: Quantitative High-Throughput drug screen in 47 multiple myeloma cell lines against the NCATS MIPE library collection: RPMI8226_ATCC cell viability assay (AID 1919871); also: nearly all actives have a fitted effect of over 30% in size
# RECORDED CONDITIONS: RPMI8226 myeloma viability, CellTiter-Glo ATP luminescence, 48 h; series mostly up to 45.8 µM
Inconclusive results are not listed. Calls of active or inactive are those of the source. Calls follow the shape of the dose curve; as a rule, active = well fitted cell-killing curve with a large enough effect; inconclusive = small, poorly fitted or top-dose-only effect, or effect the other way; inactive = no such curve, though single readings can be large or run the other way.
Hi! Could you answer with just one of these? Y = active, N = inactive

CCOC(=O)Nc1ccc(NCc2ccc(F)cc2)nc1N; N

What call does the record list for CCC1(C)CC(=O)NC1=O (stereo not drawn) ?
N

Any idea what this test logged for Nc1nnc(-c2cccc(Cl)c2Cl)c(N)n1 ?
N

Please state the recorded outcome for this molecule: Cc1cn([C@H]2C=C[C@@H](CO)O2)c(=O)[nH]c1=O
N

What classification did COC(=O)Nc1nc2ccc(C(=O)c3cccs3)cc2[nH]1 end up with in this test?
Y

How was CN(C)C(=N)N=C(N)N classified in this test?
N

Recorded call for CC[C@@]1(O)C(=O)OCc2c1cc1n(c2=O)Cc2cc3c(CN(C)C)c(O)ccc3nc2-1 ?
Y

Any idea what this test logged for Cc1ccccc1N1C(=O)c2cc(S(N)(=O)=O)c(Cl)cc2NC1C (stereo not drawn) ?
Y

// param item: Cn1ccc2cc3c(cc21)CCN3C(=O)Nc1cccnc1 ; yields the recorded call
N

Hey, what did the test say about NC(=O)OCC(COC(N)=O)c1ccccc1 ?
N

Hey, what did the test say about CS(=O)(=O)CCNCc1ccc(-c2ccc3ncnc(Nc4ccc(OCc5cccc(F)c5)c(Cl)c4)c3c2)o1 ?
Y

Please let me know the test result on file for CCCCc1oc2ccccc2c1C(=O)c1cc(I)c(OCCN(CC)CC)c(I)c1 .
Y

Identify the outcome logged in this assay for the molecule shown: O=C(c1ccc(OCCN2CCCCC2)cc1)c1c(-c2ccc(O)cc2)sc2cc(O)ccc12
Y

Recorded test call requested for CN(C)CCCN1c2ccccc2CCc2ccc(Cl)cc21
Y

Outcome logged for NC12CC3CC(CC(C3)C1)C2 in this assay:
Y

Dear colleague, could you share the recorded outcome for Cn1c(=O)c2c(ncn2C)n(C)c1=O when you have a moment?
N

I'd appreciate the recorded outcome for O=C(c1ccc(F)cc1)C1CCN(CCn2c(=O)[nH]c3ccccc3c2=O)CC1 from this test.
Y

Entry CC(C(=O)O)c1cccc(C(=O)c2ccccc2)c1 (stereo not drawn) : call = ?
N

###

# PROTOCOL NOTES: Quantitative High-Throughput drug screen in 47 multiple myeloma cell lines against the NCATS MIPE library collection: MM1S_ATCC cell viability assay (AID 1918980); also: nearly all actives have a fitted effect of over 45% in size
# RECORDED CONDITIONS: MM1S myeloma viability, CellTiter-Glo ATP luminescence, 48 h; series mostly up to 45.8 µM
# Source text: PI: Beverly A. Mock Ph.D. Laboratory of Cancer Biology and Genetics, Center for Cancer Research, National Cancer Institute, National Institute of Health, Bethesda, Maryland […] 5; Detector; 425V; Luminescence; Viewlux PerkinElmer. […] 1. […] Briefly, the corresponding myeloma cell lines were screened in 1,536-well plates with 500 cells, 5-uL per well for inhibition of cell viability (assessed by measuring ATP levels with CellTiterGlo). […]
Records with an inconclusive call do not appear. Active and inactive are the calls of the source. Calls follow the shape of the dose curve; as a rule, active = well fitted cell-killing curve with a large enough effect; inconclusive = small, poorly fitted or top-dose-only effect, or effect the other way; inactive = no such curve, though single readings can be large or run the other way.
Your reply should match one of these outcome classes. true (1) (active), false (0) (inactive)

COc1cc2nc(N3CCN(C(=O)c4ccco4)CC3)nc(N)c2cc1OC; true (1)
CCC1(c2ccccc2)C(=O)NCNC1=O; true (1)
CCC1(C)CC(=O)NC1=O (configuration not stated); false (0)
CN1CCN2c3ccccc3Cc3ccccc3C2C1 (configuration not stated); true (1)
CN1CCC(=C2c3ccccc3C=Cc3ccccc32)CC1; true (1)
NC(=O)NO; true (1)

// return assay outcome for COc1ccc2[nH]cc(CCNC(C)=O)c2c1
true (1)

Recorded test call requested for CC(C)NCC(O)c1ccc(O)c(O)c1 (configuration not stated)
true (1)

Field: outcome | Entry: C[C@@H]1CC(=O)NN=C1c1ccc(NN=C(C#N)C#N)cc1
true (1)

In this assay, the call recorded for O=c1c(O)c(-c2ccc(O)c(O)c2)oc2cc(O)cc(O)c12 was what?
true (1)

I'd appreciate the recorded outcome for CCOC(=O)Nc1ccc(NCc2ccc(F)cc2)nc1N from this test.
true (1)

Each compound tested received a call. Report the one for Nc1nnc(-c2cccc(Cl)c2Cl)c(N)n1 .
true (1)

Each compound tested received a call. Report the one for CN1CCC(=C2c3ccccc3CC(=O)c3sccc32)CC1 .
true (1)

Returns: the outcome recorded for O=C(Nc1ccc([N+](=O)[O-])cc1Cl)c1cc(Cl)ccc1O in this assay.
true (1)

###

# Test system: ATS95
# PROTOCOL NOTES: qHTS profiling for inhibitors of Plasmodium falciparum proliferation (AID 504749); also: nearly all actives have a fitted effect of over 60% in size
# RECORDED CONDITIONS: P. falciparum in erythrocytes, SYBR Green DNA, 72 h; series mostly up to 28.7 µM
Inconclusive results are not listed. Activity calls are given as the source filed them. The call rests on the fitted dose curve; in most records, active means well fitted inhibition curve with a large enough effect; inconclusive means small, poorly fitted or top-dose-only effect; inactive means flat fitted curve, though single readings scatter.
Respond using exactly one of the listed classes: Y for active, N for inactive

Recorded results for 4 compounds are shown here.
NCCCCCC(=O)O; N
Cc1cc(C(C)(C)C)cc(C)c1CC1=NCCN1; N
CN1C(C(=O)Nc2ccccn2)=C(O)c2ccccc2S1(=O)=O; N
Clc1ccc(C(c2ccccc2Cl)C(Cl)Cl)cc1 (stereo not given); N

Then there is this compound:
Name the outcome recorded for Clc1ccccc1C(c1ccccc1)(c1ccccc1)n1ccnc1 in the assay.
Y

###

# PROTOCOL NOTES: qHTS of pediatric cancer cell lines to identify multiple opportunities for drug repurposing: Primary screen for MG 63 (6-TG R) cells (AID 1347105); also: nearly all actives have a fitted effect of over 50% in size
# RECORDED CONDITIONS: MG 63 (6-TG R) viability, CellTiter-Glo, 48 h; series mostly up to 46 µM
Inconclusive results are not listed. The source made the active and inactive calls. Calls come from the whole dose curve; as a rule, active = well fitted cell-killing curve with a large enough effect; inconclusive = small, poorly fitted or top-dose-only effect; inactive = no such curve, though single readings can be large or run the other way.
Tick one outcome: active, inactive

As a guide, the following entries are already answered.
CCCNCC(O)COc1ccccc1C(=O)CCc1ccccc1 (configuration not stated); inactive
O=C(c1ccc(F)cc1)C1CCN(CCn2c(=O)[nH]c3ccccc3c2=O)CC1; inactive
CC(C)(C)C(=O)Oc1ccc(S(=O)(=O)Nc2ccccc2C(=O)NCC(=O)O)cc1; inactive

I would be grateful if you could indicate the recorded call for NC12CC3CC(CC(C3)C1)C2 .
inactive

Fill in: this test's call for CCOC(=O)c1ncn2c1CN(C)C(=O)c1cc(F)ccc1-2 is ___
inactive

Assay outcome for Cc1cc(C(C)(C)C)c(O)c(C)c1CC1=NCCN1 : what was it?
inactive

Which outcome was entered for the compound C[C@H]1c2cccc(O)c2C(O)=C2C(=O)[C@]3(O)C(O)=C(C(N)=O)C(=O)[C@@H](N(C)C)[C@@H]3[C@@H](O)[C@@H]21 in this test?
inactive

Kindly provide the recorded test outcome for the following compound: CC(C)(Oc1ccc(C2CC2(Cl)Cl)cc1)C(=O)O (configuration not stated)
inactive

What call does the record list for O=c1c(-c2ccc(O)cc2)coc2cc(O)cc(O)c12 ?
inactive

###

# PROTOCOL NOTES: qHTS Screen of the MIPE 4.0 Collection Against Ewings Sarcoma (RDES) (AID 1259252); also: nearly all actives have a fitted effect of over 35% in size
# RECORDED CONDITIONS: RD-ES Ewing sarcoma viability, CellTiter-Glo, 48 h; series mostly up to 45.8 µM
Results filed as inconclusive are left out. The source made the active and inactive calls. Calls come from the whole dose curve; as a rule, active = well fitted inhibition curve with a large enough effect; inconclusive = small, poorly fitted or top-dose-only effect; inactive = no such curve, though single readings can be large or run the other way.
Pick one and only one: T = active, F = inactive

N[C@@H](Cc1c[nH]c2ccc(O)cc12)C(=O)O; F
CC1(C)O[C@H]2CC(=O)OC[C@]23[C@H]2CC[C@@]4(C)[C@H](c5ccoc5)OC(=O)[C@H]5O[C@]54[C@]2(C)C(=O)C[C@@H]13; F

Entry CS(=O)(=O)CCNCc1ccc(-c2ccc3ncnc(Nc4ccc(OCc5cccc(F)c5)c(Cl)c4)c3c2)o1 : call = ?
T

Recorded test outcome, item CCCCc1oc2ccccc2c1C(=O)c1cc(I)c(OCCN(CC)CC)c(I)c1
T

Query: recorded result category for CC(C(=O)O)c1cccc(C(=O)c2ccccc2)c1 (stereo unspecified) in this test
T

Outcome logged for Cn1ccc2cc3c(cc21)CCN3C(=O)Nc1cccnc1 in this assay:
T

I'd appreciate the recorded outcome for Cc1ccc(-c2cc(C(F)(F)F)nn2-c2ccc(S(N)(=O)=O)cc2)cc1 from this test.
T

Recorded test outcome, item COc1ccc(CCN(C)CCCC(C#N)(c2ccc(OC)c(OC)c2)C(C)C)cc1OC (stereo unspecified)
F

What call does the record list for CC(COc1ccccc1)N(CCCl)Cc1ccccc1 (stereo unspecified) ?
F

###

# Test system: ECU
# PROTOCOL NOTES: qHTS profiling for inhibitors of Plasmodium falciparum proliferation (AID 504749); also: nearly all actives have a fitted effect of over 60% in size
# RECORDED CONDITIONS: P. falciparum in erythrocytes, SYBR Green DNA, 72 h; series mostly up to 28.7 µM
Results filed as inconclusive are left out. Calls of active or inactive are those of the source. Calls come from the whole dose curve; as a rule, active = well fitted inhibition curve with a large enough effect; inconclusive = small, poorly fitted or top-dose-only effect; inactive = flat fitted curve, though single readings scatter.
Bench note: report the call from TRUE = active, FALSE = inactive

Use the examples below as a reference point.
CN1CCC(=C2c3ccccc3CC(=O)c3sccc32)CC1; TRUE
Clc1ccc(C(c2ccccc2Cl)C(Cl)Cl)cc1 (stereo not drawn); FALSE
CC[C@@]1(O)C(=O)OCc2c1cc1n(c2=O)Cc2cc3c(CN(C)C)c(O)ccc3nc2-1; TRUE
NC(=O)OCC(COC(N)=O)c1ccccc1; FALSE
Nc1c2c(nc3ccccc13)CCCC2; FALSE
COC(=O)Nc1nc2ccc(C(=O)c3cccs3)cc2[nH]1; FALSE
O=C(Nc1ccc([N+](=O)[O-])cc1Cl)c1cc(Cl)ccc1O; TRUE
COc1nc(C)nc(Cl)c1NC1=NCCN1; FALSE

Dear all, I need the recorded test outcome for NCCS(=O)(=O)O , thank you.
FALSE

Please state the recorded outcome for this compound: Cn1cnc2c1c(=O)[nH]c(=O)n2C
FALSE

Record lookup: outcome of this test for CC(C)NCC(O)c1ccc(O)c(O)c1 (stereo not drawn) ?
FALSE

Outcome logged for CN1C(C(=O)Nc2ccccn2)=C(O)c2ccccc2S1(=O)=O in this assay:
FALSE

Assay outcome for CCOC(=O)Nc1ccc(NCc2ccc(F)cc2)nc1N : what was it?
TRUE
